system: ducksalad (Heteranthera limosa); assay: Test B flooded paddy test; assay type: in vivo; details: Flood, 31 g ai/ha; scale 0 to 100 (0 no effect, 100 complete control)
Documented Ducksalad plant response rating across a set of compounds
The answer should be a number; do not append a unit.

# count of solved cases: 8
{"columns": ["COMPOUND", "OBSERVED_MEASUREMENT"],
 "data": [
  ["CC(C)Cc1ncc(C(=O)C2=C(O)CCCC2=O)c(=O)n1-c1ccccc1", 0],
  ["COc1ccc(-n2c(-c3cccc(Cl)c3)ncc(C(=O)C3=C(O)CCCC3=O)c2=O)cc1", 80],
  ["COc1ccc(-n2c(-c3cccc(Br)c3)ncc(C(=O)C3=C(O)CCCC3=O)c2=O)cc1", 40],
  ["O=C1CCCC(O)=C1C(=O)c1cnc(-c2ccsc2)n(C2CCOCC2)c1=O", 90],
  ["CCCCCCn1c(-c2ccccc2)ncc(C(=O)C2=C(O)CCCC2=O)c1=O", 0],
  ["CCCn1c(-c2cccc(OC)c2)ncc(C(=O)C2=C(O)CCCC2=O)c1=O", 35],
  ["CCCn1c(-c2cccc(F)c2)ncc(C(=O)C2=C(O)CCCC2=O)c1=O", 0],
  ["O=C1CCCC(O)=C1C(=O)c1cnc(-c2ccccc2)n(C2CCCCCC2)c1=O", 60]
]}

What does the data say about its Ducksalad plant response rating? Entry: O=C(C1=C(O)C2CCC(C2)C1=O)c1cnc(-c2cc(F)cc(F)c2)n(-c2ccccc2)c1=O (centres unmarked) 85

Follow-up item: O=C1CCCC(O)=C1C(=O)c1cnc(-c2ccc(Br)cc2)n(-c2ccccc2)c1=O 0

Follow-up item: CCCc1ncc(C(=O)C2=C(O)CCCC2=O)c(=O)n1-c1cccc(C)c1 0

###

test system: large crabgrass (Digitaria sanguinalis); assay: Test A pre-/postemergence plant response; format: in vivo; conditions: Preemergence, 125 g ai/ha; 0 to 100 scale, 0 = no effect, 100 = complete control
MEASURED_METRIC: Plant response rating, Crabgrass, Large
The answer should be a number; do not append a unit.

# count of solved cases: 5
{"columns": ["COMPOUND", "TEST_TARGET", "OBSERVED_MEASUREMENT"],
 "data": [
  ["Cc1cccc(-n2c(-c3ccccc3)ncc(C(=O)C3=C(O)CCCC3=O)c2=O)c1", "large crabgrass (Digitaria sanguinalis)", 60],
  ["O=C1CCCC([O-])=C1C(=O)c1cnc(-c2ccccc2)n(-c2ccc(Cl)cc2)c1=O.[K+]", "large crabgrass (Digitaria sanguinalis)", 60],
  ["Cc1c(F)cccc1-n1c(-c2ccccc2)ncc(C(=O)C2=C(O)C3CCC(C3)C2=O)c1=O (centres unmarked)", "large crabgrass (Digitaria sanguinalis)", 60],
  ["CCCn1c(-c2ccc3ccccc3c2)ncc(C(=O)C2=C(O)C3CCC(C3)C2=O)c1=O (centres unmarked)", "large crabgrass (Digitaria sanguinalis)", 0],
  ["CCc1cccc(-n2c(-c3ccccc3)ncc(C(=O)C3=C(O)CCCC3=O)c2=O)c1", "large crabgrass (Digitaria sanguinalis)", 20]
]}

What does the data say about its Plant response rating, Crabgrass, Large? Entry: CCCn1c(-c2ccccc2F)ncc(C(=O)C2=C(O)CCCC2=O)c1=O 70

Follow-up item: O=C1CCCC(O)=C1C(=O)c1cnc(-c2ccccc2)n(C2CC2)c1=O 60

Follow-up item: O=C1CCCC(O)=C1C(=O)c1cnc(-c2ccsc2)n(C2CCCCC2)c1=O 60

###

Documented Plant response rating, Rice across a set of molecules
tested on: rice (Oryza sativa); assay: Test B flooded paddy test; format: in vivo; conditions: Flood (flooded paddy test), 125 g ai/ha; scale 0 to 100, 0 is no effect, 100 is complete control; 13 to 15 days
The answer should be a number; do not append a unit.

{"columns": ["STRUCTURE_STRING", "Plant response rating, Rice"],
 "data": [
  ["CCOCCn1c(-c2cc(F)cc(F)c2)ncc(C(=O)C2=C(O)CCCC2=O)c1=O", 0],
  ["Cc1ccc(F)c(-n2c(-c3ccccc3)ncc(C(=O)C3=C(O)CCCC3=O)c2=O)c1", 25]
]}

// switching to the query molecule
What does the data say about its Plant response rating, Rice? Entry: CCCn1c(-c2cccc(C)c2)ncc(C(=O)C2=C(O)CCCC2=O)c1=O 0

###

Documented Plant response rating, Flood, Ducksalad across a set of compounds
tested on: ducksalad (Heteranthera limosa); test: Test B flooded paddy test; assay type: in vivo; details: 250 g ai/ha; flooded paddy test; visual rating on 0 to 100 scale (0 no effect, 100 complete control) after 13 to 15 days
The answer should be a number; do not append a unit.

{"columns": ["STRUCTURE_STRING", "OBSERVED_MEASUREMENT"],
 "data": [
  ["O=C1CCCC(O)=C1C(=O)c1cnc(-c2ccsc2)n(C2CCCCC2)c1=O", 80],
  ["COc1cccc(-n2c(-c3ccccc3)ncc(C(=O)C3=C(O)CCCC3=O)c2=O)c1", 90],
  ["CCCn1c(-c2ccsc2)ncc(C(=O)C2=C(O)CCCC2=O)c1=O", 80],
  ["Cc1cccc(-n2c(-c3ccccc3)ncc(C(=O)C3=C(O)CCCC3=O)c2=O)c1", 90]
]}

// switching to the query compound
What does the data say about its Plant response rating, Flood, Ducksalad? Entry: O=C1CCCC(O)=C1C(=O)c1cnc(-c2cccc(Br)c2)n(C2CCCCC2)c1=O 90

###

system: green foxtail (Setaria viridis); test: Test B pre-/postemergence plant response; format: in vivo; settings: Preemergence, 62 g ai/ha; scale 0 to 100, 0 no effect, 100 complete control
Rule: Plant response rating, Foxtail, Green below 40 gives T. Equal to or above 40 gives F.

{"columns": ["COMPOUND", "TEST_TARGET", "ASSIGNED_CLASS"],
 "data": [
  ["Cc1cc(F)ccc1-n1c(-c2ccccc2)ncc(C(=O)C2=C(O)CCCC2=O)c1=O", "green foxtail (Setaria viridis)", "F"],
  ["COCCCn1c(-c2cc(F)cc(F)c2)ncc(C(=O)C2=C(O)C3CCC(C3)C2=O)c1=O (centres unmarked)", "green foxtail (Setaria viridis)", "F"],
  ["Cc1ccc(Cl)cc1-n1c(-c2ccccc2)ncc(C(=O)C2=C(O)CCCC2=O)c1=O", "green foxtail (Setaria viridis)", "T"]
]}

Next compound, please.
For CCc1cccc(-n2c(-c3ccccc3)ncc(C(=O)C3=C(O)CCCC3=O)c2=O)c1 , is the recorded Plant response rating, Foxtail, Green below the cut-off of 40? F

###

Documented Plant response rating, Goosegrass across a set of compounds
Test system: goosegrass (Eleusine indica)
Experiment: Test B pre-/postemergence plant response
Assay type: in vivo
Settings: Postemergence, 250 g ai/ha; scale 0 to 100 (0 no effect, 100 complete control); 13 to 15 days
Text: […] Treated plants and controls were maintained in a greenhouse for 13 to 15 days, after which time all treated plants were visually evaluated and compared to controls. […]
The answer should be a number; do not append a unit.

{"columns": ["STRUCTURE_STRING", "TEST_TARGET", "MEASURED_METRIC", "OBSERVED_MEASUREMENT"],
 "data": [
  ["O=C1CCCC(O)=C1C(=O)c1cnc(-c2ccsc2)n(C2CCOCC2)c1=O", "goosegrass (Eleusine indica)", "Plant response rating, Goosegrass", 100],
  ["O=C1CCCC(O)=C1C(=O)c1cnc(C2CC2)n(C2CCCCC2)c1=O", "goosegrass (Eleusine indica)", "Plant response rating, Goosegrass", 90]
]}

// switching to the query compound
What does the data say about its Plant response rating, Goosegrass? Entry: CCCn1c(-c2cccc(F)c2)ncc(C(=O)C2=C(O)CCCC2=O)c1=O 85

###

test system: winter barley (Hordeum vulgare); experiment: Test B postemergence plant response; format: in vivo; conditions: Postemergence, 125 g ai/ha; visual rating after 13 to 15 days, scale 0 (no effect) to 100 (complete control)
Documented Plant response rating, Barley across a set of molecules
The answer should be a number; do not append a unit.

# count of solved cases: 4
{"columns": ["STRUCTURE_STRING", "TEST_TARGET", "MEASURED_METRIC", "OBSERVED_MEASUREMENT"],
 "data": [
  ["Cc1cc(F)ccc1-n1c(-c2ccccc2)ncc(C(=O)C2=C(O)CCCC2=O)c1=O", "winter barley (Hordeum vulgare)", "Plant response rating, Barley", 10],
  ["Cc1ccc(C)c(-n2c(-c3ccccc3)ncc(C(=O)C3=C(O)CCCC3=O)c2=O)c1", "winter barley (Hordeum vulgare)", "Plant response rating, Barley", 0],
  ["Cc1cccc(-n2c(-c3ccccc3)ncc(C(=O)C3=C(O)CCCC3=O)c2=O)c1F", "winter barley (Hordeum vulgare)", "Plant response rating, Barley", 5],
  ["O=C1CCCC(O)=C1C(=O)c1cnc(-c2ccccc2)n(-c2ccccc2Br)c1=O", "winter barley (Hordeum vulgare)", "Plant response rating, Barley", 0]
]}

// switching to the query molecule
Please provide the recorded Plant response rating, Barley for CCn1c(-c2ccccc2)ncc(C(=O)C2=C(O)CCCC2=O)c1=O , tested on winter barley (Hordeum vulgare). 0
